- Target under test: pro-protein convertase of the subtype nine binding to recombinant LDLR-AB domain (Homo sapiens)
- Experiment notes: in vitro quantitative solid phase binding assay (ELISA) of the subtype nine pro-protein convertase to immobilized LDLR
- Assay setup: Concentration 1 μM
Readout label: inhibition at 1 µM (%)

Below are worked cases with known answers.
Lab book: inhibition at 1 µM of Cc1cc(C(Cc2ccccc2)=NOCc2ccc(C(F)(F)F)cc2)ccc1OCC(=O)NCC1CCOCC1 noted as 3

Per the record, CCC(=NOCc1ccc(C)cc1)c1ccc(OCC(=O)NCC2CCOCC2)nc1 has inhibition at 1 µM of 28

Summary for this compound, O=C(COc1ccc(C(Cc2ccccc2)=NOCc2ccc(F)cc2)cc1)NCC1CCOCC1 : inhibition at 1 µM is 22

CCC(=NOCc1ccc(C(F)(F)F)cc1)c1ccc(NCC(=O)NCC2CCOCC2)nc1 has a reported inhibition at 1 µM of 30

Kindly note the recorded inhibition at 1 µM for Cc1ccc(CON=C(Cc2ccccc2)c2ccc(OCC(=O)NCC3CCOCC3)c(C)c2)cc1 , which is 14

A. CCC(=NOCc1ccccc1)c1ccc(OCC(=O)NCC2CCOCC2)nc1
B. COc1ccc(CON=C(Cc2ccccc2)c2ccc(OCC(=O)NCC3CCOCC3)cc2)cc1
Inquiry: Could you tell me which of A and B has the lower inhibition at 1 µM reading? Answer with the label corresponding to your selection.
Reply text: B

A. O=C(COc1ccc(C(Cc2ccccc2)=NOCc2ccc(C(F)(F)F)cc2)cc1)NCC1CCOCC1
B. CC(=NOCc1ccc(C(F)(F)F)cc1)c1ccc(NCC(=O)NCC2CCOCC2)nc1
Inquiry: Select one. Lower inhibition at 1 µM: A or B Refer to your chosen entry by its label in the reply.
Reply text: A

I. O=C(COc1ccc(C(Cc2ccccc2)=NOCc2ccc(Cl)cc2)cc1)NCC1CCOCC1
II. Cc1cc(C(Cc2ccccc2)=NOCc2ccc(F)cc2)ccc1OCC(=O)NCC1CCOCC1
Inquiry: Of the two listed items, which has the higher inhibition at 1 µM? First: I Second: II Answer with the label corresponding to your selection.
Reply text: I
(I: 20%, II: 7%)

----------
- Target under test: pro-protein convertase of the subtype nine binding to recombinant LDLR-AB domain (Homo sapiens, UniProt Q8NBP7)
- Sequence (Q8NBP7 153-692): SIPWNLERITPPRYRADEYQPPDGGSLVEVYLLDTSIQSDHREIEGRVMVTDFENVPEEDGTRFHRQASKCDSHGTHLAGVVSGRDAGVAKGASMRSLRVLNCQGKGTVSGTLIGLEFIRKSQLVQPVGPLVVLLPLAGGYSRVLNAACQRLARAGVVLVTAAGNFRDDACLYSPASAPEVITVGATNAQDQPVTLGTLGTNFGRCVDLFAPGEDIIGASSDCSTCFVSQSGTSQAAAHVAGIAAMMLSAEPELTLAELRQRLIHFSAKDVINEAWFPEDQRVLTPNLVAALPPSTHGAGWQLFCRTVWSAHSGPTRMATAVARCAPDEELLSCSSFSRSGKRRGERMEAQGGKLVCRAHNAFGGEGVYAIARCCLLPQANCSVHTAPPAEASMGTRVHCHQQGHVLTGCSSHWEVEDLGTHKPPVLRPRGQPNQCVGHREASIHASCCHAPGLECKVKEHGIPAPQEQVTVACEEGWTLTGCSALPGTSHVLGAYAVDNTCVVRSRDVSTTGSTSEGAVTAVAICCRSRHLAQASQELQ
- Sequence (Q8NBP7 31-152 partner limits assumed): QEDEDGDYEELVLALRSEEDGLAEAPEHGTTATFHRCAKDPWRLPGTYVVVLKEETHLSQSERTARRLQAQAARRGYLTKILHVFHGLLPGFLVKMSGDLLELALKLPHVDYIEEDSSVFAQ
- Experiment notes: in vitro quantitative solid phase binding assay (ELISA) of the subtype nine pro-protein convertase to immobilized LDLR
- Assay setup: Concentration 100 μM
- Method: The in vitro binding assay described hereinafter is a quantitative solid phase binding assay for determining the efficacy of the compounds. […] The amount of bound gene is measured by binding it with biotinylated anti-His-tag monoclonal antibody, followed by binding with horseradish peroxidase conjugated streptavidin substrate. The color was quantified by ELISA reader at […] which reflects the relative amount of “the gene” that binds to LDLR in presence and absence of the inhibitor. […]
Readout label: inhibition at 100 µM (%)

Please review the entries below; each comes with its answer.
# inhibition at 100 µM of O=C(COc1ccc(C=NOCc2ccc(C(F)(F)F)cc2)cc1)NCC1CCOCC1 [Example 17] = 44

Reported inhibition at 100 µM of COc1ccc(CON=C(Cc2ccccc2)c2ccc(OCC(=O)NCC3CCOCC3)c(C)c2)cc1 [Example 40] : 47

Memo: O=C(COc1ccc2c(c1)CCCC2=NOCc1ccc(C(F)(F)F)cc1)NCC1CCOCC1 [Example 48] , reported inhibition at 100 µM: 64

Measured inhibition at 100 µM of CC(=NOCc1ccc(C(F)(F)F)cc1)c1ccc(NCC(=O)NCC2CCOCC2)nc1 [Example 4] : 51

Form: molecule = O=C(COc1ccc(C(CO)=NOCc2ccc(C(F)(F)F)cc2)cc1)NCC1CCOCC1 [Example 31] ; inhibition at 100 µM = 29

P. CCC(=NOCc1ccc(OC)cc1)c1ccc(OCC(=O)NCC2CCOCC2)nc1 [Example 26]
Q. O=C(COc1ccc(C(Cc2ccccc2)=NOCc2ccc(F)cc2)cc1)NCC1CCOCC1 [Example 35]
Inquiry: Out of P and Q , name the one with the higher inhibition at 100 µM. Pick one and reply with its label.
Reply text: P

All values here come from patent US8822414B2.
